system: MS2 coat protein; test: apparent KD of MS2 coat protein; higher = weaker reporter binding; conditions: Eterna round: R107; input ligand: arginine 13.2 mM
Label scheme for apparent KD of MS2 coat protein: low band (below 20 nM), middle band (20 nM to below 40 nM), high band (40 nM or more)

Worked set:
Monomer sequence	Classification
AAUAUAAUAUAAAUAAUAAUAAUAUCUGAUACCAGACUCUCAUGUGUCCCUUGGCAGCAGUAACAUGAGGAUCACCCAUGUAAUA [JR_Nu_SSTheophyA_Sub027]	middle band
CGAUCUUUCGAAAGAAGGAUCGAGUCUGAUACCAGAGACGAAAGUCUCCCUUGGCAGCAGUGCCAACAUGAGGAUCACCCAUGUA [Theophylline A 9]	middle band

Please look at the following sequence next.
stdin: Which of the defined bands does the recorded apparent KD of MS2 coat protein of GAGCUGAUGUAGAGCGAAUAUACGAGAGAUACCAGUACAGAAAUGUACCCUUGGCAGCUCAACUUUACAUGAGGAUCACCCAUGU [Ex Theophylline A 22] sit within?
stdout: low band

====

system: MS2 coat protein; test: apparent KD of MS2 coat protein; higher = weaker reporter binding; conditions: Eterna round: R107; input ligand: tryptophan 2.4 mM
Parameter measured: apparent KD of MS2 coat protein

Worked examples follow.
Monomer sequence	apparent KD of MS2 coat protein
UGUAACAUGAGGAUCACCCAUGUGAGUGAUACCAGAUUAGUAUUAGUCCCUUGGCAGCACAUUGGGCGAGUGUAUAGUCUAUGCG [Same State - Theophylline A (Freestyle 12)]	135 nM
AAACUAACGAGAGGAAACCUCGAGGGUGAUACCAGCACAUAAGGGUGCCCUUGGCAGCACCGACGUACAUGAGGAUCACCCAUGU [Gexegees]	169 nM

stdin: Look up apparent KD of MS2 coat protein: GUAUGGAAACAUACUUGGGUAUCAUGAGAUACCAGUACAGAAAUGUACCCUUGGCAGCUCAAGCAUACAUGAGGAUCACCCAUGU [Ex Theophylline A 8]
stdout: 15.4 nM

stdin: Look up apparent KD of MS2 coat protein: AUCCUCAAGAAUGAUACCAGACCAAACAUGAGGAUCACCCAUGUAUCAGGCAAUUGUUACGUCCCUUGGCAGCAUGUAAGCCGAC [Theo B SS t2]
stdout: 39.2 nM

stdin: Look up apparent KD of MS2 coat protein: UCCUCCUCCGCAAGGAGGAGGAGUUGCGAUACCAGCACGGUAACGUGCCCUUGGCAGCGCACAUGAGGAUCACCCAUGUGGUGUU [#1 Exclusion - Theophylline A Attempt #12 (HarryS)]
stdout: 231 nM

stdin: Look up apparent KD of MS2 coat protein: CAAACAUGAGGAUCACCCAUGUAAACCGAAGGAGCGACGCAUAAGUCAGGUAGGUCGCGGAAGAUAAAAUAGAACACUGGGCACA [Same State Arginine A GF1]
stdout: 19.1 nM

====

test system: MS2 coat protein; experiment: apparent KD of MS2 coat protein; designed switch direction (-1 OFF switch, 1 ON switch): 1; higher = weaker reporter binding; conditions: Eterna round: R95; input ligand: none
Parameter measured: apparent KD of MS2 coat protein (nM)
Form entry: value (nM) — number only.

Worked examples follow.
Monomer sequence	Recorded value
CGUAGGUAGCUGGAGGAUAUCUGAGUGGUAACAUGAGGAUCACCCAUGUGAUGUGAGGAACAUGAGGAGAAGGCUAGCUGCCUGC [JL-ss2-3.13 JL mod] (puzzle: Same State 2)	43.5
GGCAGGUGCAGGCUUGCUUGCACCUGGAAACAUGAGGAUCACCCAUGUUUGGGACAAGCUUUGCUCCUCGUUUUGUC [JL ViennaUCT Isusreraar mod 3] (puzzle: Sensor for hsa-mir-208a)	288

Now turn to the next sequence.
stdin: Look up apparent KD of MS2 coat protein: UGCAUACAUGAGGAUCACCCAUGUCAACGUAGUCGAGGAUAUGGGCAGCCGUGAGGCGUACCAGAAGGCGAAGAGG [JL-ss1-3.04 ViennaUCT mod] (puzzle: Same State 1)
stdout: 77.9
